- TESTED_TARGET: Tel-FGFR4 (Homo sapiens (Human))
- Sequence (P22455 other isoform, or with tags, fused parts or gaps): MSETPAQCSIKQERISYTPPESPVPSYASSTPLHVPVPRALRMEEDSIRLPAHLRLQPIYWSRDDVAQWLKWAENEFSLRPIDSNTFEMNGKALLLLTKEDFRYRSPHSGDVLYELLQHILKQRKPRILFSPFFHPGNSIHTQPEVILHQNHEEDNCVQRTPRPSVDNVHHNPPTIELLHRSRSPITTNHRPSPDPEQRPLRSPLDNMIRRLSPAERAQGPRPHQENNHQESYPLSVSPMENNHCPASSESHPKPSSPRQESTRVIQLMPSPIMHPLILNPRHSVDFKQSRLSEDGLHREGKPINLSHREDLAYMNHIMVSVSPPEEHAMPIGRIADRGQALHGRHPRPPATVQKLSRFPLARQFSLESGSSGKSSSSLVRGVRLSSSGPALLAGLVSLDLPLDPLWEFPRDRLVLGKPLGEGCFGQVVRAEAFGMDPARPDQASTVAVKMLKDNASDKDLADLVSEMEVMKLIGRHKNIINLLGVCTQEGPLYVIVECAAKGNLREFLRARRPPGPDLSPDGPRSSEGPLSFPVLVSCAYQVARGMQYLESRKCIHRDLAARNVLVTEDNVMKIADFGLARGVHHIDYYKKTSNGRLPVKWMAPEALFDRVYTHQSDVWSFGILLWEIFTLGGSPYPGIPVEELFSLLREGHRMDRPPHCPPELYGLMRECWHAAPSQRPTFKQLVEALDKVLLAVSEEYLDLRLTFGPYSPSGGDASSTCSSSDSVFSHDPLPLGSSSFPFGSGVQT
- ASSAY_TEXT: In vitro cellular kinase assay for FGFR4 (BaF3-Tel-FGFR4 cells, MSD capture ELISA of tyrosine phosphorylation)
- Format: cell-based
- CONDITION_LABEL: Cellular BaF3 FGFR4 assay; read-out: Cellular IC50
pIC50: −log10 of the molar value.
# if value of pIC50 reaches 8, tag Yes; if it stays below, tag No

| COMPOUND | DISCRETE_LABEL |
| --- | --- |
| COC[C@@H](C)Nc1cc(NC(=O)N2CCCc3cc(C(F)F)c(C=O)nc32)ncc1C#N | No |
| CCC(=O)N(C)Cc1cc2c(nc1C=O)N(C(=O)Nc1cc(OC(C)C)c(C#N)cn1)CCC2 | No |
| COC(C)CNc1cc(NC(=O)N2CCCc3cc(C(F)F)c(C=O)nc32)ncc1C#N (stereo not drawn) | No |
| CC(C)COc1cc(NC(=O)N2CCCc3cc(C(F)F)c(C=O)nc32)ncc1C#N | No |
| CCN(Cc1cc2c(nc1C=O)N(C(=O)Nc1cc(NCCOC)c(C#N)cn1)CCC2)C(=O)CN(C)C | Yes |
